Assay text: in vivo
Condition summary: beagle, dog, plasma
Measurement type: half-life

-- ask Quick check: half-life of N[C@@H](CSCC(=O)O)C(=O)O ?
-- reply 1.02 to 1.07 h

* * *

Assay text: in vivo
Condition summary: beagle, dog, plasma
Measurement type: clearance

-- ask Quick check: clearance of N[C@@H](CSCC(=O)O)C(=O)O ?
-- reply 4.52 to 4.64 mL/min/kg

* * *

Assay text: in vivo
Condition summary: beagle, dog, plasma, 400 mg
Measurement type: Tmax

-- ask Quick check: Tmax of N[C@@H](CSCC(=O)O)C(=O)O ?
-- reply 1.5 to 1.55 h

This collection of values is drawn from patent US20100120776A1.
